tested on: Mycobacterium tuberculosis; assay: Antimicrobial activity against Mycobacterium tuberculosis H37Rv ATCC 27294 at 6.25 ug/ml after 24 hrs by Microplate Almar blue assay; type: functional; conditions: H37Rv ATCC 27294, 24 h
Quantity name: inhibition at 6.25 µg/mL

# Molecule, inhibition at 6.25 µg/mL
measured = [
    ("C/C(=N/NC(=O)c1ccco1)c1ccc([N+](=O)[O-])cc1", "62%"),
]

Per the records, this molecule ( O=C(NN/C=C/c1ccccc1)c1ccncc1 ) has inhibition at 6.25 µg/mL equal to 54%

Per the records, this molecule ( O=C1Nc2ccccc2/C1=N\NC(=O)c1cc(/C=C\c2ccco2)on1 ) has inhibition at 6.25 µg/mL equal to 39%

Per the records, this molecule ( CC(=O)OC(O/C(C)=N/NC(=O)c1ccco1)c1ccc([N+](=O)[O-])o1 (centres undefined) ) has inhibition at 6.25 µg/mL equal to 99%
